B1: library; numbered along this chain (parent)
chain: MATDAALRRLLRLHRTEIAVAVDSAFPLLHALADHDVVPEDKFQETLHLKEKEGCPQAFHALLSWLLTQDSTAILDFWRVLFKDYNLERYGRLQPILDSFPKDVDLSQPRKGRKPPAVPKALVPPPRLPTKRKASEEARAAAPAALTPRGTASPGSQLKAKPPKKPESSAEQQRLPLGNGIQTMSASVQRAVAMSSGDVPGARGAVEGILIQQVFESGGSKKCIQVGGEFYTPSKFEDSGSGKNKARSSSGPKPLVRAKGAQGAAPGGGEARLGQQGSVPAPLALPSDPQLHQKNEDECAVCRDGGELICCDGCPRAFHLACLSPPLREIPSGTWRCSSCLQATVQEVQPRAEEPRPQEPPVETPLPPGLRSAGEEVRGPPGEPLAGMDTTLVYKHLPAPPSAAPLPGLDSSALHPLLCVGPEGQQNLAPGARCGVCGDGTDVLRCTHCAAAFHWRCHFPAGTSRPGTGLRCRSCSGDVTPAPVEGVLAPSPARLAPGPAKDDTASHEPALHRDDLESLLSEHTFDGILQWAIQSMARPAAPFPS

# Variants of: B1
# Run description: AIRE transcriptional activation functional score (insulin promoter-GFP; nonsense median 0, synonymous median 1) (normalised score); higher = higher AIRE activity (more reporter activation)
# Condition notes: with insulin promoter-GFP reporter in HEK293
Quick list: AIRE transcriptional activation functional score per entry.
Reported metric: AIRE transcriptional activation functional score

>  <Mutation descriptor>
A261I

>  <Measured value>
0.612

$$$$
>  <Mutation descriptor>
S521M

>  <Measured value>
0.76

$$$$
>  <Mutation descriptor>
L488N

>  <Measured value>
0.961

$$$$
>  <Mutation descriptor>
V80N

>  <Measured value>
-6.41

$$$$
>  <Mutation descriptor>
L177H

>  <Measured value>
1.01

$$$$
>  <Mutation descriptor>
K120D

>  <Measured value>
0.677

$$$$
>  <Mutation descriptor>
V80L

>  <Measured value>
0.613

$$$$
>  <Mutation descriptor>
Q349T

>  <Measured value>
1.12

$$$$
>  <Mutation descriptor>
K131H

>  <Measured value>
0.185

$$$$
>  <Mutation descriptor>
Q108K

>  <Measured value>
0.479

$$$$
>  <Mutation descriptor>
T16Q

>  <Measured value>
-0.475

$$$$
>  <Mutation descriptor>
P367Q

>  <Measured value>
1.26

$$$$
>  <Mutation descriptor>
Q358V

>  <Measured value>
1.07

$$$$
>  <Mutation descriptor>
G469I

>  <Measured value>
0.951

$$$$
>  <Mutation descriptor>
A258E

>  <Measured value>
1.13

$$$$
>  <Mutation descriptor>
L397H

>  <Measured value>
0.0686

$$$$
>  <Mutation descriptor>
K102P

>  <Measured value>
-1.25

$$$$
>  <Mutation descriptor>
G313C

>  <Measured value>
1.51

$$$$
>  <Mutation descriptor>
K120Y

>  <Measured value>
1.34

$$$$
>  <Mutation descriptor>
F230K

>  <Measured value>
0.376

$$$$
>  <Mutation descriptor>
I330E

>  <Measured value>
0.403

$$$$
>  <Mutation descriptor>
P326A

>  <Measured value>
0.645

$$$$
>  <Mutation descriptor>
E363V

>  <Measured value>
1.14

$$$$
>  <Mutation descriptor>
G421T

>  <Measured value>
0.472

$$$$
